experiment: Inhibition of HIV1 wild type reverse transcriptase-mediated viral DNA synthesis in human HOS-313 cells expressing HSV thymidine kinase assessed as luciferase activity treated 3 hrs before infection measured after 48 hrs by luminescence assay
observable: pIC50
// returns pIC50 (minus log10 of molar concentration), number only

# pIC50 (compound: Cc1cccc2c1OP(=O)(OC[C@H]1C[C@@H](n3cc(C)c(=O)[nH]c3=O)C[C@@H]1O)OC2 (stereo partly specified) ) is 6.92

====

Give pIC50 for every item shown.
test: Inhibition of HIV1 wild type reverse transcriptase-mediated viral DNA synthesis in human HOS cells assessed as luciferase activity treated 3 hrs before infection measured after 48 hrs by luminescence assay
// returns pIC50 (minus log10 of molar concentration), number only

# pIC50 (compound: Cc1cn([C@@H]2C[C@H](CO)[C@@H](O)C2)c(=O)[nH]c1=O ) is 5.49

# pIC50 (compound: Cc1cccc2c1OP(=O)(OC[C@H]1C[C@@H](n3cc(C)c(=O)[nH]c3=O)C[C@@H]1O)OC2 (some centres not stated) ) is 6.42
